Target: human interleukin 6 (hIL-6) (UniProt P05231 30-212)
Sequence (P05231 30-212): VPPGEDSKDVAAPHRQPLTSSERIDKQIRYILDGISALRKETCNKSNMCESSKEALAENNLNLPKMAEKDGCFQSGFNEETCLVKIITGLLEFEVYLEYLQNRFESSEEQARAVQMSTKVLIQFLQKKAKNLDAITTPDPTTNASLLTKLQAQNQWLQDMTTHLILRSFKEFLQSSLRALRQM
Experiment: ELISA
pEC50: −log10 of the molar value.
MEASURED QUANTITY: pEC50

Please review the following examples before continuing.
hIL-6-binding VHH JYK-H9 (Trx/JYK-H9/E) (VHH) VHH: QLQLVETGGGLVQPGGSLRLSCAASGFTLDYYAIGWFRQAPGKEREGVSCLSSSDRSTYYVDSVKGRFTISRDDDKNTAYLQMNSLKPEDTATYYCAAGTWDLKWGYNISACVGSYEYDYWGQGTQVTVSS :: 9.09
hIL-6-binding VHH JYK-F12 (Trx/JYK-F12/E) (VHH) VHH: QVQLAETGGGSVQAGGSLTLSCAASGRTFSSRAMGWFRQAPGKEREFVAVISWTGSPYYTDSVKGRFTISRDDAKNTVYLQMNSLKPEDTAVYYCAATSEHVMLVVTTRGGYDYWGQGTQVTVSS :: 7.84
hIL-6-binding VHH JYK-A1 (Trx/JYK-A1/E) (VHH) VHH: QLQLAETGGGLVQPGGSLRLSCAASGFTLDYYAVGWFRQAPGKEREGISCISSSDLKTYYADSVKGRFTISRDYAKSTVSLQMNSLKPEDTGVYYCAAGTWDLKFGYNISACVGSYEYDYWDQGTQVTVSS :: 9.10

[I] hIL-6-binding VHH JYK-A9 (Trx/JYK-A9/E) (VHH) VHH: QVQLVESGGGLVQAGDSLTLSCAASGRPFSSFAMGWFRQAPGKEREFVAAITWSRGTTHYADSVKGRFTISGDNAKNTVFLQMNSLKPEDTAVYYCAAADGWKVVSTASPAYDYWGQGTQVTVSS
[II] hIL-6-binding VHH JYK-D12 (Trx/JYK-D12/E) (VHH) VHH: QLQLVESGGGLVQPGGSLGLSCAASGFTLAYYGIGWFRQAPGKEREGVACISSSDLSTYYADSVKGRFTISRDNAKDTVYLQMNSLKPEDTAVYYCAAGTWDLKFGYSRSNCVRSYEYDYWGQGTQVTVSS
I'm curious, which of these has a smaller pEC50 number: I or II ? Refer to your chosen item by its label in the answer.
I
(I: 7.56, II: 9.49)
